The measured values listed here are drawn from patent US11007208B2.

assay: in vitro; settings: human
// values below are reported CC50

N#C[C@@]1(c2ccc3c(N)ncnn23)O[C@H](CO)[C@@H](O)[C@H]1O = > 100 µM

Next molecule, CC50 to be filled in.
[ask] Given the molecule CCC(CC)COC(=O)[C@H](C)N[P@](=O)(OC[C@H]1O[C@@](C#N)(c2ccc3c(N)ncnn23)[C@H](O)[C@@H]1O)Oc1ccccc1 , what is its reported CC50?
[reply] > 10 µM

---

test system: MERS-CoV (Strain Jordan N3); assay: microbe, parasite or virus in culture; type: cell-based; conditions: Middle East respiratory syndrome-related coronavirus, Vero, read-out: EC50 MERS-CoV Vero
quantity name: EC50 (nM)
Express your answer in nM, writing the number without its unit.

CCC(CC)COC(=O)[C@H](C)N[P@](=O)(OC[C@H]1O[C@@](C#N)(c2ccc3c(N)ncnn23)[C@H](O)[C@@H]1O)Oc1ccccc1 = 580

[ask] # lookup: EC50 of CCC(CC)COC(=O)[C@H](C)NP(=O)(OC[C@H]1O[C@@](C#N)(c2ccc3c(N)ncnn23)[C@H](O)[C@@H]1O)Oc1ccccc1 (some centres unmarked)
[reply] 460
